Would you kindly list pIC50 for each of these molecules?
- system name: PDE4B (Homo sapiens)
- protocol text: Human PDE4 enzyme inhibition assay ([3H]-cAMP), PDE4B
- Format: biochemical
- assay conditions: PDE4B IC50, enzyme prepared from U937 cells; average of at least three assays
Give bare numbers, as −log10 of the molar value.

> print(dat)
                 molecule  readout.name  reported.result
1  O=C(O)/C=C/c1ccc(O)cc1         pIC50             5.66

Prompt line: Identify the reported pIC50 for the following entry. O=C(O)/C=C/c1ccccc1 [Compound 1, trans-cinnamic acid]
Response line: 4.04

* * *

- system name: PDE4D (Homo sapiens)
- protocol text: Human PDE4 enzyme inhibition assay ([3H]-cAMP), PDE4D
- Assay type: biochemical
readout name: IC50 (nM)
Numbers only, in nM.

Prompt line: Identify the reported IC50 for the following entry. "O=C(O)/C=C/c1ccc(O)cc1"
Response line: 2300

* * *

- system name: PDE4D (Homo sapiens, UniProt Q08499)
- Sequence (Q08499 386-715 limits assumed): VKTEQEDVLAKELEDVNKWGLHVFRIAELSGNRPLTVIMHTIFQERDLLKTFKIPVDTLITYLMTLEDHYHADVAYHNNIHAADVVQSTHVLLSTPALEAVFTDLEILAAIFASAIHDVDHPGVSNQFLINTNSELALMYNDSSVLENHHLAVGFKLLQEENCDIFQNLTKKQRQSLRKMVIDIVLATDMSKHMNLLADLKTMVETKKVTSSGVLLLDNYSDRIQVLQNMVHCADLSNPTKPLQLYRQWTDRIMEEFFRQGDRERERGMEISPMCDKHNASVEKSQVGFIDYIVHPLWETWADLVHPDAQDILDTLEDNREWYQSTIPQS
- protocol text: Human PDE4 enzyme inhibition assay ([3H]-cAMP), PDE4D
- Assay type: biochemical
- assay conditions: enzyme prepared from U937 cells; average of at least three assays; read-out: PDE4D IC50
# strict inequality: IC50 < 60 µM yields criterion met, everything else yields criterion not met

Some solved entries appear below for comparison.
> print(dat)
                                   compound        class.label
1  O=C(O)/C=C/c1ccccc1Cl [Compound 11, trans-2-chlorocinnamic acid]  criterion not met
2  O=C(O)/C=C/c1cccc(O)c1 [Compound 3, meta-coumaric acid]      criterion met
3  O=C(O)/C=C/c1cccc(Cl)c1 [Compound 12, trans-3-chlorocinnamic acid]  criterion not met
4  O=C(O)/C=C/c1ccc(F)cc1 [Compound 16, trans-4-fluorocinnamic acid]      criterion met
5  CN(C)c1ccc(/C=C/C(=O)O)cc1 [Compound 18, trans-4-dimethylaminocinnamic acid]      criterion met
6  COc1cccc(/C=C/C(=O)O)c1 [Compound 6, trans-3-methoxycinnamic acid]  criterion not met

Prompt line: Please let me know if O=C(O)/C=C/c1ccc(Cl)cc1 [Compound 13, trans-4-chlorocinnamic acid] shows IC50 below 60 µM.
Response line: criterion met

Prompt line: Please let me know if O=C(O)/C=C/c1ccccc1O [Compound 2, ortho-coumaric acid] shows IC50 below 60 µM.
Response line: criterion met

Prompt line: Please let me know if COc1ccc(/C=C/C(=O)O)cc1 [Compound 7, trans-4-methoxycinnamic acid] shows IC50 below 60 µM.
Response line: criterion met

Prompt line: Please let me know if COc1ccccc1/C=C/C(=O)O [Compound 5, trans-2-methoxycinnamic acid] shows IC50 below 60 µM.
Response line: criterion not met

* * *

Would you kindly list pIC50 for each of these compounds?
- system name: PDE4B (Homo sapiens, UniProt Q07343)
- Sequence (Q07343 249-736 limits assumed): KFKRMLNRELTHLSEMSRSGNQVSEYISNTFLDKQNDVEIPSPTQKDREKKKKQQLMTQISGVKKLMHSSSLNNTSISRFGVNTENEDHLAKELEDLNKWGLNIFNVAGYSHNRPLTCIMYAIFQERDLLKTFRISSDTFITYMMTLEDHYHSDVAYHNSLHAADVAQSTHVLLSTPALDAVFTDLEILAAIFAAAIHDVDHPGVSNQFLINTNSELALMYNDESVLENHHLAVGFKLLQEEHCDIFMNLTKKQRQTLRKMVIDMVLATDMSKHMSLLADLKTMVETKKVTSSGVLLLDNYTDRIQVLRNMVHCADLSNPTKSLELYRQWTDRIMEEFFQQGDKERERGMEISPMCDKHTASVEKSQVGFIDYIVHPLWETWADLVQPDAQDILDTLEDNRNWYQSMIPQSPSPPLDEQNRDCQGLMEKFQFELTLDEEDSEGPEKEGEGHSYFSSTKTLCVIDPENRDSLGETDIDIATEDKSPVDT
- protocol text: Human PDE4 enzyme inhibition assay ([3H]-cAMP), PDE4B
- Type: biochemical
- assay conditions: enzyme prepared from U937 cells; average of at least three assays; read-out: PDE4B IC50
One number for each entry, as −log10 of the molar value.

Study these solved cases before continuing.
> print(dat)
                                   compound  reported.result
1  Cc1ccccc1/C=C/C(=O)O [Compound 8, trans-2-methylcinnamic acid]             3.86
2  O=C(O)/C=C/c1cccc(Cl)c1 [Compound 12, trans-3-chlorocinnamic acid]             4.20
3  O=C(O)/C=C/c1ccccc1Cl [Compound 11, trans-2-chlorocinnamic acid]             4.09
4  COc1ccccc1/C=C/C(=O)O [Compound 5, trans-2-methoxycinnamic acid]             4.29
5  O=C(O)/C=C/c1ccc(F)cc1 [Compound 16, trans-4-fluorocinnamic acid]             4.48

Dear colleague, could you send me pIC50 for each of the items below? Thanks.
1. O=C(O)/C=C/c1ccc(C(F)(F)F)cc1 [Compound 19, trans-4-trifluoromethylcinnamic acid]
2. COc1cccc(/C=C/C(=O)O)c1 [Compound 6, trans-3-methoxycinnamic acid]
3. O=C(O)/C=C/c1ccccc1O
4. O=Cc1ccc(/C=C/C(=O)O)cc1 [Compound 15, trans-4-formylcinnamic acid]
5. O=C(O)/C=C/c1ccc([N+](=O)[O-])cc1 [Compound 14, trans-4-nitrocinnamic acid]
6. O=C(O)/C=C/c1ccc(Br)cc1 [Compound 17, trans-4-bromocinnamic acid]
7. O=C(O)/C=C/c1cccc(O)c1

Response line:
4.01
4.48
4.38
4.00
3.95
4.06
4.55

Dear colleague, could you send me pIC50 for each of the items below? Thanks.
1. COc1ccc(/C=C/C(=O)O)cc1 [Compound 7, trans-4-methoxycinnamic acid]
2. O=C(O)/C=C/c1ccc(Cl)cc1 [Compound 13, trans-4-chlorocinnamic acid]
3. Cc1cccc(/C=C/C(=O)O)c1 [Compound 9, trans-3-methylcinnamic acid]
4. Cc1ccc(/C=C/C(=O)O)cc1 [Compound 10, trans-4-methylcinnamic acid]

Response line:
[5.09, 4.35, 3.99, 4.07]

* * *

- Tested on: TNF-α release in human blood mononuclear cells
- protocol text: LPS-stimulated TNF-α release in PBMCs (TR-FRET)
- Assay type: cell-based
- assay conditions: PBMC, LPS stimulation 18 h, read-out: TNFα IC50
Would you kindly list IC50 for each of these compounds?
Give bare numbers, in µM.

Study these solved cases before continuing.
> print(dat)
                                   compound                               system.name  readout.name  reported.result
1                    O=C(O)/C=C/c1cccc(O)c1  TNF-α release in human blood mononuclear cells          IC50             37.8
2  Cc1ccc(/C=C/C(=O)O)cc1 [Compound 10, trans-4-methylcinnamic acid]  TNF-α release in human blood mononuclear cells          IC50             99.2
3  Cc1cccc(/C=C/C(=O)O)c1 [Compound 9, trans-3-methylcinnamic acid]  TNF-α release in human blood mononuclear cells          IC50              121

Dear colleague, could you send me IC50 for each of the items below? Thanks.
1. O=C(O)/C=C/c1ccc(Cl)cc1 [Compound 13, trans-4-chlorocinnamic acid]
2. COc1ccccc1/C=C/C(=O)O [Compound 5, trans-2-methoxycinnamic acid]
3. CN(C)c1ccc(/C=C/C(=O)O)cc1 [Compound 18, trans-4-dimethylaminocinnamic acid]
4. O=C(O)/C=C/c1ccccc1 [Compound 1, trans-cinnamic acid]
5. COc1ccc(C2CNC(=O)C2)cc1OC1CCCC1 (stereo not shown) [Rolipram, reference compound]
6. O=C(O)/C=C/c1ccc(F)cc1 [Compound 16, trans-4-fluorocinnamic acid]
7. O=C(O)/C=C/c1cccc(Cl)c1 [Compound 12, trans-3-chlorocinnamic acid]

Response line:
[89.7, 64.2, 65.2, 198, 18.5, 65.2, 119]

Dear colleague, could you send me IC50 for each of the items below? Thanks.
1. O=C(O)/C=C/c1ccccc1Cl [Compound 11, trans-2-chlorocinnamic acid]
2. O=C(O)/C=C/c1ccc(C(F)(F)F)cc1 [Compound 19, trans-4-trifluoromethylcinnamic acid]
3. O=C(O)/C=C/c1ccccc1O
4. O=C(O)/C=C/c1ccc(Br)cc1 [Compound 17, trans-4-bromocinnamic acid]

Response line:
1. 128
2. 118
3. 40.4
4. 125

Dear colleague, could you send me IC50 for each of the items below? Thanks.
1. O=C(O)/C=C/c1ccc(O)cc1
2. COc1ccc(/C=C/C(=O)O)cc1 [Compound 7, trans-4-methoxycinnamic acid]

Response line:
1. 21.5
2. 30.8

* * *

- system name: PDE4B (Homo sapiens, UniProt Q07343)
- protocol text: Human PDE4 enzyme inhibition assay ([3H]-cAMP), PDE4B
- Assay type: biochemical
- assay conditions: PDE4B pIC50 (Experimental), log(1/IC50), IC50 in μM
Would you kindly list IC50 for each of these compounds?
Numbers only, in µM.

> print(dat)
                 compound  readout.name  reported.result
1  O=C(O)/C=C/c1ccc(O)cc1          IC50             2.19

From here, focus on the item given below.
Prompt line: Identify the reported IC50 for the following entry. O=C(O)/C=C/c1ccccc1 [Compound 1, trans-cinnamic acid]
Response line: 91.2

* * *

- system name: PDE4B (Homo sapiens, UniProt Q07343)
- protocol text: Human PDE4 enzyme inhibition assay ([3H]-cAMP), PDE4B
- Format: biochemical
- assay conditions: PDE4B, as listed in Table S4 (rounded); read-out: IC50
pIC50: −log10 of the molar value.
The label depends only on pIC50: TRUE if it is at least 4, FALSE if it is smaller.

> print(dat)
                                   compound  class.label
1  O=C(O)/C=C/c1ccc(Cl)cc1 [Compound 13, trans-4-chlorocinnamic acid]         TRUE
2  O=C(O)/C=C/c1cccc(Cl)c1 [Compound 12, trans-3-chlorocinnamic acid]         TRUE
3  Cc1ccccc1/C=C/C(=O)O [Compound 8, trans-2-methylcinnamic acid]        FALSE
4  CN(C)c1ccc(/C=C/C(=O)O)cc1 [Compound 18, trans-4-dimethylaminocinnamic acid]         TRUE

Switching to the query record.
Prompt line: Hello, I need to know if O=C(O)/C=C/c1ccc(F)cc1 [Compound 16, trans-4-fluorocinnamic acid] has measured pIC50 not below 4. Thanks!
Response line: TRUE

From: paper PMC12750277
